# test: qHTS assay to identify small molecule agonists of the progesterone receptor (PR) signaling pathway - cell viability counter screen (AID 1346799); also: nearly all actives have a fitted effect of over 45% in size
# setup conditions: PR-UAS-bla HEK293T viability, CellTiter-Glo luminescence, 16 h; series mostly up to 92.4 µM
# From the text: National Center for Advancing Translational Sciences [NCATS] NIH Chemical Genomics Center [NCGC] U.S. Environmental Protection Agency [EPA] National Institutes of Environmental Health Sciences [NIEHS] National Toxicology Program [NTP] U.S. Food and Drug Administration [FDA] Progesterone receptor (PR), a nuclear hormone receptor, plays an important role in development, metabolic homeostasis and reproduction. It is activated by the steroid hormone progesterone. […]
Results filed as inconclusive are left out. Active and inactive are the calls of the source. Calls follow the shape of the full dose curve.
assay readout: activity change, negative = cytotoxicity

Solved entries:
>  <molecule>
NC(=O)O

>  <activity change, negative = cytotoxicity>
inactive

$$$$
>  <molecule>
CC(C)CC#N

>  <activity change, negative = cytotoxicity>
inactive

$$$$
>  <molecule>
CCCSC(=O)N(CCC)CCC

>  <activity change, negative = cytotoxicity>
inactive

$$$$
>  <molecule>
CCOC(=O)CP(=O)(OCC)OCC

>  <activity change, negative = cytotoxicity>
inactive

$$$$
>  <molecule>
O=C(Nc1ccccc1)c1ccccc1I

>  <activity change, negative = cytotoxicity>
inactive

$$$$

Provide reported activity change, negative = cytotoxicity for each item, in the same order as listed.
1. CC(=O)C(Cl)Cl
2. CCOc1nc(C(Cl)(Cl)Cl)ns1
3. O=[N+]([O-])c1cccc(O)c1

Reply:
1: inactive; 2: inactive; 3: inactive

Provide reported activity change, negative = cytotoxicity for each item, in the same order as listed.
1. Cc1cccc(C#N)c1
2. ClC(Br)Br
3. N#CCNCC#N

Reply:
["inactive", "inactive", "inactive"]

Provide reported activity change, negative = cytotoxicity for each item, in the same order as listed.
1. O=P(O)(Oc1ccccc1)Oc1ccccc1
2. CC(C)[N+](=O)[O-]
3. CCCCOC(=O)[C@@H](C)Oc1ccc(Oc2ccc(C#N)cc2F)cc1
4. CCOP(=S)(Oc1cnc(C(C)(C)C)nc1)OC(C)C (stereo not drawn)
5. Cc1cnc[nH]1
6. O=C(N[C@H]1CN2CCC1CC2)c1cc2ccoc2cn1

Reply:
1: inactive; 2: inactive; 3: inactive; 4: inactive; 5: inactive; 6: inactive

---

# tgt: Estrogen receptor (Homo sapiens) (UniProt P03372)
# Sequence (P03372 whole entry, looked up): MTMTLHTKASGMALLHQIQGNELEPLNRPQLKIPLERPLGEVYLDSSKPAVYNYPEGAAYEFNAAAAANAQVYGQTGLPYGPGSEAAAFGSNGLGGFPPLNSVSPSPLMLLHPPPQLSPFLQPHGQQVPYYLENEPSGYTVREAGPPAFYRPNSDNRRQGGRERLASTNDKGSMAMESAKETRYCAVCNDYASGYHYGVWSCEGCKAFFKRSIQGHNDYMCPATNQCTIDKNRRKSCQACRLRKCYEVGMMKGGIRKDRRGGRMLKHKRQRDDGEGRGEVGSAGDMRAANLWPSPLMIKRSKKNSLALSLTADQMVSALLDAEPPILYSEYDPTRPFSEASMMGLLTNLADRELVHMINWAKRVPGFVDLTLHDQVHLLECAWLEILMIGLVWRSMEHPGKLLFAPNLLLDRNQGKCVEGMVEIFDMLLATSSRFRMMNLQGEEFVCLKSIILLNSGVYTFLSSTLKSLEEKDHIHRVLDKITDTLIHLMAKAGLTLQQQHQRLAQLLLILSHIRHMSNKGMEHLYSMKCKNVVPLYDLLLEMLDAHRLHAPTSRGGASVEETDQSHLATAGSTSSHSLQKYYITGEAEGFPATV
# test: qHTS assay to identify small molecule agonists of the estrogen receptor alpha (ER-alpha) signaling pathway (AID 743075);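 also: HEK293 GripTite cells with ER-alpha and UAS-driven beta-lactamase reporter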
# setup conditions: HEK293 ER-alpha-UAS-bla, beta-lactamase FRET ratio, 18 h; series mostly up to 70.1 µM
Records with an inconclusive call do not appear. Active and inactive are the calls of the source. The call rests on the fitted dose curve.
Respond with a class label; see active, inactive

Some entries whose results are on file:
>  <compound>
CC1CCCCC1NC(=O)Nc1ccccc1 (stereo not drawn)

>  <assigned category>
inactive

$$$$
>  <compound>
COc1cccc2c1cc([N+](=O)[O-])c1c(C(=O)O)cc3c(c12)OCO3

>  <assigned category>
inactive

$$$$
>  <compound>
CCc1cc2c(s1)-n1c(C)nnc1CN=C2c1ccccc1Cl

>  <assigned category>
inactive

$$$$

Query: Could you check what this test reported for CNC(=O)Oc1ccccc1C1OCCO1 ?
Reply: inactive
